target: HLA-C0602 (Homo sapiens, UniProt P10321, A176E/A330V/C350S/L171W/L180W/L218V/M285V/M309V/M331V/N104K/P208H/Q277E/Q291P/R121W/S101N/S123Y/S297R/T329A/T363A/V319A/V328M); test: Competitive peptide binding assay, CIR-C0602
Peptide text beside a SMILES is read from it.
Below is a list of entries, each paired with its recorded IC50 value.
readout: IC50

compound: CC[C@H](C)[C@H](NC(=O)[C@H](C)NC(=O)[C@H](C)NC(=O)[C@H](CC(N)=O)NC(=O)CNC(=O)[C@H](CC(=O)O)NC(=O)[C@H](CCC(N)=O)NC(=O)[C@H](C)NC(=O)[C@@H](N)Cc1ccccc1)C(=O)O [Epitope M22] (H-FAQDGNAAI-OH; N-terminus and C-terminus assumed)
obsValue: > 15 µM
//
compound: CSCC[C@H](NC(=O)[C@H](CO)NC(=O)[C@H](Cc1ccccc1)NC(=O)[C@H](Cc1c[nH]cn1)NC(=O)[C@H](CCCCN)NC(=O)[C@H](CCCNC(=N)N)NC(=O)[C@H](CC(C)C)NC(=O)[C@H](Cc1ccc(O)cc1)NC(=O)[C@H](C)NC(=O)[C@@H](N)Cc1ccc(O)cc1)C(=O)O [Epitope M26] (H-YAYLRKHFSM-OH; N-terminus and C-terminus assumed)
obsValue: > 15 µM

* * *

target: HLA-C0102 (Homo sapiens, UniProt P10321, A176E/A330V/A35S/A97T/C350S/D114A/D33F/L171W/L180R/L218V/M285V/M309V/M331V/P208H/Q277E/Q291P/R121W/R243W/R30K/S123C/S140Y/S297R/T329A/T363A/V272M/V319A); assay: Competitive peptide binding assay, CIR-C0102; details: read-out: Inhibition % of Cy5-reference peptide binding
Peptide text beside a SMILES is read from it.

molecule: CSCC[C@H](NC(=O)[C@H](CO)NC(=O)[C@H](CCCNC(=N)N)NC(=O)[C@@H](NC(=O)[C@H](CCCNC(=N)N)NC(=O)[C@H](C)NC(=O)[C@H](Cc1ccccc1)NC(=O)[C@H](CC(C)C)NC(=O)[C@@H](N)CCCNC(=N)N)[C@@H](C)O)C(=O)O [Epitope M41] (H-RLFARTRSM-OH; N-terminus and C-terminus assumed)
inhibition at 5 µM (%): 9.56

molecule: CC[C@H](C)[C@H](NC(=O)[C@H](C)NC(=O)[C@H](C)NC(=O)[C@H](CC(N)=O)NC(=O)[C@H](CC(N)=O)NC(=O)[C@H](C)NC(=O)[C@@H]1CCCN1C(=O)[C@H](CC(N)=O)NC(=O)[C@H](CCCNC(=N)N)NC(=O)[C@@H](N)[C@@H](C)O)C(=O)O [Epitope M117] (H-TRNPANNAAI-OH; N-terminus and C-terminus assumed)
inhibition at 5 µM (%): 21

molecule: CC[C@H](C)[C@H](NC(=O)[C@@H]1CCCN1C(=O)[C@@H](NC(=O)[C@H](Cc1c[nH]cn1)NC(=O)[C@H](CCCCN)NC(=O)[C@H](CO)NC(=O)[C@H](Cc1ccc(O)cc1)NC(=O)[C@@H](NC(=O)[C@@H](N)CCCCN)[C@@H](C)CC)[C@@H](C)O)C(=O)O [Epitope M34] (H-KIYSKHTPI-OH; N-terminus and C-terminus assumed)
inhibition at 5 µM (%): 77.4
